tested on: 885512-296-R-J2-PDC complex spheroid growth, % test/control; assay: Anticancer human tumor 885512-296-R-J2-PDC patient-derived breast carcinoma cell line growth inhibition [Asc]; conditions: second compound 3.16 µM; first compound 0.00316 µM; active compounds read low
Threshold check on viability, T/C: strictly below 90% is Criterion met; on or above 90% is Criterion not met.

Here's what some known entries look like.
| compound | assigned_label |
| --- | --- |
| NC1CCC(NC2CC2c2ccccc2)CC1 (stereo unspecified) + Cc1c(S(C)(=O)=O)c(-c2cc(F)cc(N3CCN(c4ccc(NS(=O)(=O)c5ccc(NC(CCN6CCC(C(=O)OCCCP(=O)(O)O)CC6)CSc6ccccc6)c(S(=O)(=O)C(F)(F)F)c5)cc4)CC3)c2)c(-c2ccc(Cl)cc2)n1C(C)C | Criterion not met |
| Cn1ncnc1[C@H]1c2n[nH]c(=O)c3cc(F)cc(c23)N[C@@H]1c1ccc(F)cc1 + Cc1c(S(C)(=O)=O)c(-c2cc(F)cc(N3CCN(c4ccc(NS(=O)(=O)c5ccc(NC(CCN6CCC(C(=O)OCCCP(=O)(O)O)CC6)CSc6ccccc6)c(S(=O)(=O)C(F)(F)F)c5)cc4)CC3)c2)c(-c2ccc(Cl)cc2)n1C(C)C | Criterion met |
| CNC(C)C(=O)NC1CN(S(=O)(=O)c2cccc(S(=O)(=O)N3CCC4CCC(C(=O)NC(c5ccccc5)c5ccccc5)N4C(=O)C(NC(=O)C(C)NC)C3)c2)CCC2CCC(C(=O)NC(c3ccccc3)c3ccccc3)N2C1=O (stereo unspecified) + Cc1c(S(C)(=O)=O)c(-c2cc(F)cc(N3CCN(c4ccc(NS(=O)(=O)c5ccc(NC(CCN6CCC(C(=O)OCCCP(=O)(O)O)CC6)CSc6ccccc6)c(S(=O)(=O)C(F)(F)F)c5)cc4)CC3)c2)c(-c2ccc(Cl)cc2)n1C(C)C | Criterion not met |

Read the next record carefully.
I wonder whether O=C(c1ccc(F)c(F)c1Nc1ccc(I)cc1F)N1CC(O)([C@@H]2CCCCN2)C1 + Cc1c(S(C)(=O)=O)c(-c2cc(F)cc(N3CCN(c4ccc(NS(=O)(=O)c5ccc(NC(CCN6CCC(C(=O)OCCCP(=O)(O)O)CC6)CSc6ccccc6)c(S(=O)(=O)C(F)(F)F)c5)cc4)CC3)c2)c(-c2ccc(Cl)cc2)n1C(C)C has viability, T/C below 90%. Can you tell?
Criterion not met

###

test system: 885512-296-R-J2-PDC complex spheroid growth, % test/control; experiment: Anticancer human tumor 885512-296-R-J2-PDC cell line growth inhibition [Asc]; conditions: second compound 0.3 µM; first compound 3.16 µM; active compounds read low;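 also: spheroids exposed to compounds for seven days; 100% = DMSO vehicle control wells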
Each entry below lists one item and its recorded viability, T/C value.
Give the quantity in %, number only.

Known results for compounds:
| compound | tgt | viability, T/C (%) |
| --- | --- | --- |
| C=C(F)C(=O)N1CCN(c2nc(OCC3CCCN3C)nc3c2CCN(c2cccc4cccc(Cl)c24)C3)CC1CC#N (centres undefined) + CCN1C(C(=O)NC23CCC(C(=O)O)(CC2)CC3)C(c2cccc(Cl)c2F)C2(C(=O)Nc3cc(Cl)ccc32)C12CCCCC2 | 885512-296-R-J2-PDC complex spheroid growth, % test/control | 29.5 |
| C#Cc1c(F)ccc2cc(O)cc(-c3ncc4c(N5CC6CCC(C5)N6)nc(OCC56CCCN5CC(F)C6)nc4c3F)c12 (centres undefined) + CCN1C(C(=O)NC23CCC(C(=O)O)(CC2)CC3)C(c2cccc(Cl)c2F)C2(C(=O)Nc3cc(Cl)ccc32)C12CCCCC2 | 885512-296-R-J2-PDC complex spheroid growth, % test/control | 78.3 |
| O=C(c1cc(Cc2n[nH]c(=O)c3ccccc23)ccc1F)N1CCN(C(=O)C2CC2)CC1 + CCN1C(C(=O)NC23CCC(C(=O)O)(CC2)CC3)C(c2cccc(Cl)c2F)C2(C(=O)Nc3cc(Cl)ccc32)C12CCCCC2 | 885512-296-R-J2-PDC complex spheroid growth, % test/control | 69.5 |

// sample C=CC(=O)N1CCN(c2nc(=O)n(-c3c(C)ccnc3C(C)C)c3nc(-c4c(O)cccc4F)c(F)cc23)C(C)C1 (centres undefined) + CCN1C(C(=O)NC23CCC(C(=O)O)(CC2)CC3)C(c2cccc(Cl)c2F)C2(C(=O)Nc3cc(Cl)ccc32)C12CCCCC2 , its viability, T/C was 101
